FYI, the data here is from patent US20140120095A1.

# testedSystem: human DLL4 expressed on cells (CHO-hDLL4; HEK293-hDLL4) (human, UniProt Q9NR61 27-685)
# procedureDetails: cell-based or functional assay
Would you mind telling me the reported IC50, DLL4-mediated reporter assay (hDLL4) of each entry?

# IC50, DLL4-mediated reporter assay (hDLL4) lookup, item DLLBII129B05 (VHH, not shown: small tags and cut ends) VHH: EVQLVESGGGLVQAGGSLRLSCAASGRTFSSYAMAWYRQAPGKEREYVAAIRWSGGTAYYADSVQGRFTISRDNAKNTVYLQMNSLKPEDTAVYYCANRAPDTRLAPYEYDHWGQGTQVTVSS
0.108 µM

Subsequent entry: DLLBII018 (VHH, not shown: small tags and cut ends) VHH: EVQLVESGGGLVQPGGSLRLSCAASGRTFSSYAMAWYRQAPGKEREYVAAIRWSGGTAYYADSVKGRFTISRDNAKNTVYLQMNSLRPEDTAVYYCANRAPDTRLAPYEYDHWGQGTLVTVSS
0.136 µM

// next record DLLBII136C07 (VHH, not shown: small tags and cut ends) VHH: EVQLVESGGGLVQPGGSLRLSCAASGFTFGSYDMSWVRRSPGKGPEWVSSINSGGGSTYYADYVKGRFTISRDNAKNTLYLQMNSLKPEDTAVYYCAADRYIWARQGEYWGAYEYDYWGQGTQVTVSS
0.112 µM

Entry DLLBII036 (VHH, not shown: small tags and cut ends) VHH: EVQLVESGGGLVQPGGSLRLSCAASGFTFGSYDMSWVRRAPGKGPEWVSSISSGGGSTYYADYVKGRFTISRDNAKNTLYLQMNSLRPEDTAVYYCAADRYIWARQGEYWGAYEYDYWGQGTLVTVSS please
0.078 µM

Further, for DLLBII017 (VHH, not shown: small tags and cut ends) VHH: EVQLVESGGGLVQPGGSLRLSCAASGRTFSSYAMAWYRQAPGKEREYVAAIRWSGGTAYYADSVQGRFTISRDNAKNTVYLQMNSLRPEDTAVYYCANRAPDTRLAPYEYDHWGQGTLVTVSS ?
0.126 µM

Item: DLLBII039 (VHH, not shown: small tags and cut ends) VHH: EVQLVESGGGLVQPGGSLRLSCAASGFTIGSYDMSWVRRAPGKGPEWVSSISSGGGSTYYADYVKGRFTISRDNAKNTLYLQMNSLRPEDTAVYYCAADRYIWARQGEYWGAYEYDYWGQGTLVTVSS
0.016 µM
